Procedure Text: qHTS assay to identify small molecule antagonists of the estrogen related receptor signaling pathway with the pleiotropic PPARgamma coactivator (PGC) cell viability counter screen (AID 1224822;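 also: viability read after 17.5 h compound exposure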)
Settings: ERR/PGC reporter cell line viability counter screen; series mostly up to 46.1 µM
Records with an inconclusive call do not appear. Activity calls are given as the source filed them. Calls follow the shape of the dose curve; as a rule, active = well fitted cell-killing curve with a large enough effect in the repeat runs; inconclusive = weak or mixed curves, or effect the other way; inactive = flat fitted curve, though single readings scatter.
// allowed return values: true for active, false for inactive

Incoming: So what was the verdict on Oc1ccc(O)cc1 in this test?
Outgoing: false

Incoming: So what was the verdict on CN(C)CCN(Cc1cccs1)c1ccccn1 in this test?
Outgoing: false

Incoming: So what was the verdict on Cn1cnc([N+](=O)[O-])c1Sc1ncnc2nc[nH]c12 in this test?
Outgoing: false

Incoming: So what was the verdict on CN(C)CCC=C1c2ccccc2CCc2ccccc21 in this test?
Outgoing: false

Incoming: So what was the verdict on CC(C(=O)O)c1cccc(C(=O)c2ccccc2)c1 (stereo unspecified) in this test?
Outgoing: false

Incoming: So what was the verdict on Cc1[nH]c(=O)c(C#N)cc1-c1ccncc1 in this test?
Outgoing: false

Incoming: So what was the verdict on CN(C)c1nc(N(C)C)nc(N(C)C)n1 in this test?
Outgoing: false

Incoming: So what was the verdict on C[C@]12CCC(=O)C=C1CC[C@@H]1[C@@H]2C(=O)C[C@@]2(C)[C@H]1CC[C@]2(O)C(=O)CO in this test?
Outgoing: false

Incoming: So what was the verdict on COC(=O)C1=C(C)NC(C)=C(C(=O)OCCN(C)Cc2ccccc2)C1c1cccc([N+](=O)[O-])c1 (stereo unspecified) in this test?
Outgoing: true

Incoming: So what was the verdict on Cc1c(OCC(F)(F)F)ccnc1CS(=O)c1nc2ccccc2[nH]1 (stereo unspecified) in this test?
Outgoing: false

Incoming: So what was the verdict on CN1C(C(=O)Nc2ccccn2)=C(O)c2ccccc2S1(=O)=O in this test?
Outgoing: false
